assay: Stability of cannabinoid compounds and Vitamin E components in Beverage 1 (AB White) by LCMSMS; assay type: physicochemical; details: AB White stored at 21-25° C.; 23 days
Please go through the items and note down their Stability of Plant-Derived Cannabinoid Compounds in AB White, 21-25° C..
Numbers only; they are read as µg/mL.

### Prompt Look up Stability of Plant-Derived Cannabinoid Compounds in AB White, 21-25° C.: CCCc1cc(O)c2c(c1)OC(C)(C)[C@@H]1CCC(C)=C[C@@H]21 [THCV, delta-9-tetrahydrocannabivarin]
### Response 3.57

### Prompt Then this molecule: CCCCCc1cc(O)c2c(c1)OC1(C)CCC3C1C2C3(C)C (stereo not drawn)
### Response 0.530

### Prompt Then this molecule: CCCCCc1cc(O)c2c(c1)OC(C)(C)[C@@H]1CCC(C)=C[C@@H]21 [D9 THC, delta-9-tetrahydrocannabinol, reference compound]
### Response 12.0

### Prompt Then this molecule: CCCCCc1cc2c(c(O)c1C(=O)O)[C@@H]1C=C(C)CC[C@H]1C(C)(C)O2 [D9 THCA, delta-9-tetrahydrocannabinolic acid]
### Response 0.924

### Prompt Then this molecule: CCCCCc1cc(O)c2c(c1)OC(C)(CCC=C(C)C)C=C2 (stereo not drawn)
### Response 0.316

### Prompt Then this molecule: `C=C(C)[C@@H]1CCC(C)=C[C@H]1c1c(O)cc(CCCCC)c(C(=O)O)c1O`
### Response 1.73

### Prompt Then this molecule: `CCCCCc1cc(O)c(C/C=C(\C)CCC=C(C)C)c(O)c1`
### Response 4.85

### Prompt Then this molecule: `C=C(C)[C@@H]1CCC(C)=C[C@H]1c1c(O)cc(CCC)cc1O`
### Response 0.148

### Prompt Then this molecule: `CCCCCc1cc(O)c2c(c1)OC(C)(C)c1ccc(C)cc1-2`
### Response 2.68

----------
Please go through the items and note down their Stability of Plant-Derived Cannabinoid Compounds in AB Red.
experiment: Stability of cannabinoid compounds and Vitamin E components in Beverage 2 (AB Red) by LCMSMS; format: physicochemical; conditions: stored at 21-25° C., 450 days
Numbers only; they are read as µg/mL.

### Prompt Look up Stability of Plant-Derived Cannabinoid Compounds in AB Red: CCCCCc1cc(O)c2c(c1)OC(C)(C)[C@@H]1CCC(C)=C[C@@H]21 [D9 THC, delta-9-tetrahydrocannabinol, reference compound]
### Response 12.2

### Prompt Then this compound: `C=C(C)[C@@H]1CCC(C)=C[C@H]1c1c(O)cc(CCC)cc1O`
### Response 0.19

### Prompt Then this compound: `C=C(C)[C@@H]1CCC(C)=C[C@H]1c1c(O)cc(CCCCC)c(C(=O)O)c1O`
### Response 1.57

### Prompt Then this compound: CCCCCc1cc(O)c2c(c1)OC1(C)CCC3C1C2C3(C)C (stereo not drawn)
### Response 0.49

### Prompt Then this compound: CCCc1cc(O)c2c(c1)OC(C)(C)[C@@H]1CCC(C)=C[C@@H]21 [THCV, delta-9-tetrahydrocannabivarin]
### Response 3.14

### Prompt Then this compound: CCCCCc1cc2c(c(O)c1C(=O)O)[C@@H]1C=C(C)CC[C@H]1C(C)(C)O2 [D9 THCA, delta-9-tetrahydrocannabinolic acid]
### Response 1.31

### Prompt Then this compound: `CCCCCc1cc(O)c(C/C=C(\C)CCC=C(C)C)c(O)c1`
### Response 4.63

### Prompt Then this compound: CCCCCc1cc(O)c2c(c1)OC(C)(CCC=C(C)C)C=C2 (stereo not drawn)
### Response 0.28

### Prompt Then this compound: `CCCCCc1cc(O)c2c(c1)OC(C)(C)c1ccc(C)cc1-2`
### Response 2.68
